Source of measurements: PubChem BioAssay

- method summary: inhibitors of larval lipid processing in zebrafish, primary screen, whole organism, PED6 fluorescence, gall bladder and intestine (AID 686);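 note: larvae 5 to 7 days old with five fish per well; signal comes from phospholipase A2 cleavage of quenched PED6 carried via bile; overnight exposure to compound and PED6 before scoring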
- stated conditions: Zebrafish larvae PED6 lipid processing, fluorescence scoring; screened at 20 µM (by protocol)
Activity calls are given as the source filed them.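 Rule for the calls: active = a full or partial loss of lipid-probe fluorescence in the fish gall bladder, intestine or both, judged by eye; inactive = no fluorescence loss, or compound toxic to the fish.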
Mark one answer only. Choices: true (active), false (inactive)

Please review the following examples before continuing.
# molecule, label value
rows = [
    ("COCCNC(=O)NC(=O)COC(=O)Cc1ccc2c(c1)OCCO2", "false"),
    ("Cc1cc(Br)c(S(=O)(=O)n2nnc3ccccc32)cc1C", "false"),
    ("CCN1CCN(c2nc3c(c(=O)n(C)c(=O)n3C)n2Cc2cccc3ccccc23)CC1", "false"),
    ("COc1ccccc1N1CCN(c2cc(N3CCCC3)nc(C)n2)CC1", "false"),
    ("Cc1cccc(NC(=O)c2ccc(S(=O)(=O)N(C)C)cc2)n1", "false"),
    ("O=C(COC(=O)CCOc1ccccc1)Nc1ccc(Cl)cn1", "false"),
    ("COC(=O)Cn1cnc2sc(C)c(S(=O)(=O)N3CCC(C)CC3)c2c1=O", "false"),
    ("OC(CNCCc1ccccc1)c1ccccc1 (centres undefined)", "false"),
    ("CN(Cc1ccccc1)C(=O)c1cc(-c2ccc(Br)cc2)on1", "false"),
    ("N#Cc1c(-c2ccc3c(c2)OCO3)csc1N", "false"),
]

Next molecule, please.
input: # fetch the recorded call for Cc1cc(=O)c2n(Cc3ccccc3Cl)nc[n+]2[nH]1 here
output: false
